target: hmGlu5 (Homo sapiens, UniProt P41594)
Construct: expressed in transfected cells; host or cells: HEK 293A
Sequence (P41594 21-1212): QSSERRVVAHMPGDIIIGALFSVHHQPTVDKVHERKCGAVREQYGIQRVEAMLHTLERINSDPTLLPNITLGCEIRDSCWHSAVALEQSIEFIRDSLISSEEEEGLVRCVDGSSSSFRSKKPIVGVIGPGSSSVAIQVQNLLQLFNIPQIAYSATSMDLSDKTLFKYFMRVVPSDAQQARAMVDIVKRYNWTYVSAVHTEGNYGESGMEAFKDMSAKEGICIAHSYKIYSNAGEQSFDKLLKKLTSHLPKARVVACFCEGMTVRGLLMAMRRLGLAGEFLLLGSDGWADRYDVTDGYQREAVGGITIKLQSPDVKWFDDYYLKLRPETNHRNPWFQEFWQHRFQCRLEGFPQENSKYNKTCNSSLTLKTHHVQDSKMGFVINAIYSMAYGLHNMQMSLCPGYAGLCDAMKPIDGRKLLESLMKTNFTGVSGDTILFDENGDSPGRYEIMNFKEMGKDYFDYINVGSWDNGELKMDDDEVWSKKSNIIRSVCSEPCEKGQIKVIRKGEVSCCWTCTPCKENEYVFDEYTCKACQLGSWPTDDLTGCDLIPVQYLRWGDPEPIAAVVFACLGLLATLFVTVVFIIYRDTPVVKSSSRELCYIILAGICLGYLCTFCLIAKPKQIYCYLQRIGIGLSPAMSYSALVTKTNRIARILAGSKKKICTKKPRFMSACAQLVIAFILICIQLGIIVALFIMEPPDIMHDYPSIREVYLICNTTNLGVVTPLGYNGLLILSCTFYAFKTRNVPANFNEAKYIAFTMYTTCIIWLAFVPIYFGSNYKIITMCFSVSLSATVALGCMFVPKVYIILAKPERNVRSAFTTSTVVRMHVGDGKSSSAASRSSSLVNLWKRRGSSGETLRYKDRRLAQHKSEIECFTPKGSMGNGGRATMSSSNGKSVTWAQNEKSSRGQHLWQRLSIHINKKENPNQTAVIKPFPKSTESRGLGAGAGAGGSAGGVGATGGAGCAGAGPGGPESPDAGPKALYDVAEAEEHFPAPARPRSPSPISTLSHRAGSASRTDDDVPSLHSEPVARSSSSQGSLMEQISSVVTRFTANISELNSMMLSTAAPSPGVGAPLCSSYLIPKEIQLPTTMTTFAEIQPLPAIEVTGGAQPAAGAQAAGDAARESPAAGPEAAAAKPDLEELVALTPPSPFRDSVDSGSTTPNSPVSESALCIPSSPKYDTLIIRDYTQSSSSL
experimental-details: mGlu5 Ca2+ flux assay in HEK 293A cells (negative allosteric modulation of glutamate EC80 response)
Type: cell-based
assay-setup: HEK 293A cells, Ca2+ flux, glutamate EC80; >10,000 = decrease without plateau; read-out: hmGlu5 NAM IC50

compound-structure	IC50 [µM]
Cc1csc(-c2nc(-c3cc(-c4cncc(F)c4)c(F)c(C)n3)no2)n1	0.613
Cc1nc(-c2noc(-c3ccc(F)cn3)n2)cc(-c2ccc(C3CC3)nc2)c1F	3.09
Cc1ccncc1-c1cc(-c2nc(-c3ccc(F)cn3)no2)nc(C)c1F	0.124
Fc1ccc(-c2nc(-c3cc(-c4cncc(F)c4)cc(C4CCC4)n3)no2)nc1	1.91
Cc1nc(-c2nnc(-c3ccc(F)cn3)o2)cc(-c2cnsc2)c1F	0.185
Cc1ccncc1-c1cc(-c2noc(-c3ncccc3F)n2)ncc1F	2.63
COc1ncc(-c2cc(-c3nnc(-c4ccc(F)cn4)o3)nc(C)c2F)cc1F	5.75
COc1cc(C#N)cc(-c2cc(-c3nnc(-c4ccc(F)cn4)o3)nc(C)c2F)c1	0.066
